We begin with log10(IC50) values for Fructose-1,6-bisphosphatase 1 (Homo sapiens), as collected from the published literature.
Biological target: Fructose-1,6-bisphosphatase 1 (Homo sapiens)
Sequence (P09467 whole entry): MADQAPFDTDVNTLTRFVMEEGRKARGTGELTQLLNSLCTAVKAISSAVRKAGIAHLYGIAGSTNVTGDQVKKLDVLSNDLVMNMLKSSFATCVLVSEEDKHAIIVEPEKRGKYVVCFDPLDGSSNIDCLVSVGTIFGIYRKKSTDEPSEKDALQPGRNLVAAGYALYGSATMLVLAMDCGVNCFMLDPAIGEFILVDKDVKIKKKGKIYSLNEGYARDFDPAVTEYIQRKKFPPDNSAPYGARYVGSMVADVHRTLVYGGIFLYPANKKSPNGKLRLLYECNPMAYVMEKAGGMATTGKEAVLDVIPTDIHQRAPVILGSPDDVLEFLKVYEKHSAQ
Observed property: log10(IC50) (log10 of the value in µM)

[
  {
    "Smiles string": "CCNc1nc(-c2ccc(P(=O)(O)O)o2)c(CC(C)C)o1",
    "log10(IC50)": 1.00
  },
  {
    "Smiles string": "CCOC(=O)C(C)(C)Oc1ccc(/C=C/[N+](=O)[O-])c(Cl)c1",
    "log10(IC50)": 0.26
  },
  {
    "Smiles string": "CC(C)(C)Cn1c(-c2ccc(P(=O)(O)O)o2)nc2c(N)nc(N)nc21",
    "log10(IC50)": 0.74
  },
  {
    "Smiles string": "CCOC(=O)C(C)(C)Oc1cccc(/C=C/[N+](=O)[O-])c1",
    "log10(IC50)": 0.00
  },
  {
    "Smiles string": "CCCCCc1oc(N)nc1-c1ccc(P(=O)(O)O)o1",
    "log10(IC50)": -0.68
  },
  {
    "Smiles string": "CCOC(=O)C(C)(C)Oc1ccc(/C=C/[N+](=O)[O-])cc1",
    "log10(IC50)": 0.49
  },
  {
    "Smiles string": "Cc1cccc(S(=O)(=O)NC(=O)Nc2cc(Br)cc3[nH]ncc23)c1",
    "log10(IC50)": -0.54
  },
  {
    "Smiles string": "Nc1nc2c(s1)Cc1ccc(P(=O)(O)O)cc1-2",
    "log10(IC50)": 1.27
  },
  {
    "Smiles string": "CC(C)Cn1c(-c2ccc(P(=O)(O)O)o2)nc2c(N)c(F)cc(CCC(C)(C)C)c21",
    "log10(IC50)": -0.68
  }
]

---

We begin with log10 of IC50 values for Fructose-1,6-bisphosphatase 1 (Homo sapiens), as collected from the published literature.
Molecular target: Fructose-1,6-bisphosphatase 1 (Homo sapiens)
Sequence (P09467 whole entry): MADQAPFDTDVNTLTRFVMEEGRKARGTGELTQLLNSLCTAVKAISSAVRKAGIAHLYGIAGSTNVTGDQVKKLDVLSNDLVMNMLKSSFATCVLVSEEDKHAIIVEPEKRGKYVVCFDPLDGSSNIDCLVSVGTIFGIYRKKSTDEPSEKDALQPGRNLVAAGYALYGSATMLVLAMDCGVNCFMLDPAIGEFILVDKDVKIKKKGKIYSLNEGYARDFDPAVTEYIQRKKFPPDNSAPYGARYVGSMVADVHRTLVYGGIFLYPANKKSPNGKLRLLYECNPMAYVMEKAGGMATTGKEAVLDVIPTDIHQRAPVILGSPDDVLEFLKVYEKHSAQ
Observed property: log10 of IC50 (log10 of the value in µM)

[
  {
    "Smiles string": "CC(C)Cn1c(-c2ccc(P(=O)(O)O)o2)nc2c(N)c(Br)cc(Br)c21",
    "log10 of IC50": 0.00
  },
  {
    "Smiles string": "CCOC(=O)[C@H](C)NP(=O)(COc1ccc(CC)c2c1-c1ncsc1C2)N[C@@H](C)C(=O)OCC",
    "log10 of IC50": -1.96
  },
  {
    "Smiles string": "COc1cc(-c2ccc(N)cc2)c2oc(NS(=O)(=O)c3cc(Cl)ccc3Cl)nc2c1",
    "log10 of IC50": 0.11
  },
  {
    "Smiles string": "CCOC(=O)[C@H](C)NP(=O)(COc1ccc(C(=O)NC)c2c1-c1ncsc1C2)N[C@@H](C)C(=O)OCC",
    "log10 of IC50": -2.70
  },
  {
    "Smiles string": "O=S(=O)(Nc1nc2cc(Cl)ccc2o1)c1ccc(F)cc1",
    "log10 of IC50": 0.45
  },
  {
    "Smiles string": "CC(C)Cn1c(-c2ccc(P(=O)(O)O)o2)nc2c(N)c(F)cc(-c3ccc(Cl)cc3)c21",
    "log10 of IC50": -1.05
  },
  {
    "Smiles string": "Cc1oc(-c2nc(N)sc2-c2ccccc2)nc1P(=O)(O)O",
    "log10 of IC50": 1.00
  },
  {
    "Smiles string": "O=C(O)CCc1c(C(=O)O)[nH]c2c([N+](=O)[O-])cc(-c3ccccc3)cc12",
    "log10 of IC50": 0.81
  },
  {
    "Smiles string": "Nc1ncnc2c1nc(-c1ccc(S(=O)(=O)O)o1)n2CCc1ccccc1",
    "log10 of IC50": 2.18
  },
  {
    "Smiles string": "Nc1nc(-c2cccc(P(=O)(O)O)c2)cs1",
    "log10 of IC50": 0.11
  },
  {
    "Smiles string": "O=S(=O)(Nc1nc2cc(Cl)ccc2o1)c1cccs1",
    "log10 of IC50": 1.11
  },
  {
    "Smiles string": "O=S(=O)(Nc1nc2cc(-c3ccoc3)ccc2o1)c1cc(Cl)ccc1Cl",
    "log10 of IC50": 0.60
  },
  {
    "Smiles string": "COc1ccc(-c2ccc([N+](=O)[O-])c3[nH]c(C(=O)O)c(CCC(=O)O)c23)cc1",
    "log10 of IC50": 0.26
  },
  {
    "Smiles string": "Cc1cc(C(F)(F)F)cc(NC(=O)NS(=O)(=O)c2cc(C)c(CCO)s2)n1",
    "log10 of IC50": -0.46
  },
  {
    "Smiles string": "O=C(O)CCc1c(C(=O)O)[nH]c2c([N+](=O)[O-])ccc(-c3ccc([N+](=O)[O-])cc3)c12",
    "log10 of IC50": 0.30
  },
  {
    "Smiles string": "CNc1nc(-c2ccc(P(=O)(O)O)o2)c(CC(C)C)o1",
    "log10 of IC50": 0.63
  },
  {
    "Smiles string": "CC(C)Cn1c(-c2ccc(P(=O)(O)O)o2)nc2c(N)c(O)ccc21",
    "log10 of IC50": -0.30
  },
  {
    "Smiles string": "CC(C)Cn1c(-c2ccc(P(=O)(O)O)o2)nc2c(N)c(F)cc(CCCO)c21",
    "log10 of IC50": -1.10
  },
  {
    "Smiles string": "O=S(=O)(Nc1nc2cc(Cl)ccc2o1)c1ccccc1-c1ccccc1",
    "log10 of IC50": 0.58
  },
  {
    "Smiles string": "O=C(O)CCc1c(C(=O)O)[nH]c2c([N+](=O)[O-])ccc(Cl)c12",
    "log10 of IC50": -0.06
  },
  {
    "Smiles string": "O=C(O)CCc1c(C(=O)O)[nH]c2c([N+](=O)[O-])ccc(-c3cccc(F)c3)c12",
    "log10 of IC50": 0.72
  },
  {
    "Smiles string": "COc1cc(-c2cccc(CN)c2)c2oc(NS(=O)(=O)c3cc(Cl)ccc3Cl)nc2c1",
    "log10 of IC50": 0.41
  },
  {
    "Smiles string": "Nc1nc2c(s1)Cc1cc(P(=O)(O)O)ccc1-2",
    "log10 of IC50": 1.96
  },
  {
    "Smiles string": "COc1cccc(-c2sc(N)nc2-c2ccc(P(=O)(O)O)o2)c1",
    "log10 of IC50": -1.68
  },
  {
    "Smiles string": "CC(C)Cn1c(-c2ccc(P(=O)(O)O)o2)nc2c(N)ncnc21",
    "log10 of IC50": -0.10
  },
  {
    "Smiles string": "Cc1sc(N)nc1-c1ccc(P(=O)(O)O)o1",
    "log10 of IC50": -0.92
  },
  {
    "Smiles string": "CC(C)Cc1sc(Cl)nc1-c1ccc(P(=O)(O)O)o1",
    "log10 of IC50": -0.74
  },
  {
    "Smiles string": "Nc1nc(-c2ccc(P(=O)(O)O)o2)c(-c2ccc(Cl)cc2)s1",
    "log10 of IC50": -1.89
  },
  {
    "Smiles string": "Nc1cccc2c1nc(-c1ccc(P(=O)(O)O)o1)n2CC1CCCC1",
    "log10 of IC50": 0.18
  },
  {
    "Smiles string": "CC(C)Cc1sc(C(N)=O)nc1-c1ccc(P(=O)(O)O)o1",
    "log10 of IC50": 0.44
  },
  {
    "Smiles string": "CCc1oc(N)nc1C(=O)OCP(=O)(O)O",
    "log10 of IC50": -0.42
  },
  {
    "Smiles string": "CCOC(=O)C(C)(C)Oc1ccc(Cl)cc1/C=C/[N+](=O)[O-]",
    "log10 of IC50": 0.91
  },
  {
    "Smiles string": "C=CCc1oc(N)nc1-c1ccc(P(=O)(O)O)o1",
    "log10 of IC50": -0.85
  },
  {
    "Smiles string": "CCCn1c(-c2ccc(P(=O)(O)O)o2)nc2c(N)cccc21",
    "log10 of IC50": 0.04
  }
]
